# MRT last per entry
assay explanation: Pharmacokinetic study in rats after oral administration of SYD extract and its single and combined TCM extracts (UPLC-MS/MS of plasma)
recorded conditions: male, Sprague-Dawley, rat, plasma, po, 4.5 g·kg^−1 (extract), MRT(0–t), rat plasma, oral LJ + SN extract, n = 6

compound	MRT last
O=C(/C=C/c1ccc(O)c(O)c1)O[C@@H]1C[C@](O)(C(=O)O)C[C@@H](O)[C@H]1O	3.48 h
C[C@]1(OC(=O)/C=C/c2ccccc2)C[C@@H](O)[C@]2(O)C=CO[C@@H](O[C@@H]3O[C@H](CO)[C@@H](O)[C@H](O)[C@H]3O)[C@@H]21 [Harpagoside, harpagoside]	5.32 h
COc1ccc(CCO[C@@H]2O[C@H](CO[C@@H]3OC[C@H](O)[C@H](O)[C@H]3O)[C@@H](OC(=O)/C=C/c3ccc(O)c(OC)c3)[C@H](O[C@@H]3O[C@@H](C)[C@H](O)[C@@H](O)[C@H]3O)[C@H]2O)cc1O [Angoroside C, angoroside C]	2.88 h

Determine its reported MRT last: `COC(=O)C1=CO[C@@H](O[C@@H]2O[C@H](CO)[C@@H](O)[C@H](O)[C@H]2O)[C@@H]2[C@@H](C)[C@@H](O)C[C@H]12`
7.79 h
